# System: Saccharomyces cerevisiae;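 note: PSI is a weighted mean of sequencing reads over stability bins, variants kept only with over 10 reads, mCherry proximal and sfGFP distal, peptide attached via GGGS linker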
# protocol details: protein stability index of tFT-peptide fusion (C-terminal peptide) (PSI (0-1 scale)); higher = more stable (slower turnover)
# setup conditions: genetic background: das1 deletion; temperature: 37 C
Listed here: items and their measured protein stability index.
// response body must contain only the number

Sample answers from the record:
RPCLSALRFRFF ... 0.727
SCFCFRVLLCSF ... 0.402
GSMGGVGVLGGD ... 0.557
PRSFFYIQFVFA ... 0.431
SWLAQCVVISLL ... 0.662

Endpoint output: protein stability index of `RGVGSGGLEGIG` . Value? 0.543

Endpoint output: protein stability index of `CLILGLFSLIFL` . Value? 0.561
